List of PGE2 EC50 with compound values.
TESTED_SYSTEM: Prostaglandin E2 receptor EP2 subtype (Homo sapiens) (UniProt P43116)
Sequence (P43116 whole entry, looked up): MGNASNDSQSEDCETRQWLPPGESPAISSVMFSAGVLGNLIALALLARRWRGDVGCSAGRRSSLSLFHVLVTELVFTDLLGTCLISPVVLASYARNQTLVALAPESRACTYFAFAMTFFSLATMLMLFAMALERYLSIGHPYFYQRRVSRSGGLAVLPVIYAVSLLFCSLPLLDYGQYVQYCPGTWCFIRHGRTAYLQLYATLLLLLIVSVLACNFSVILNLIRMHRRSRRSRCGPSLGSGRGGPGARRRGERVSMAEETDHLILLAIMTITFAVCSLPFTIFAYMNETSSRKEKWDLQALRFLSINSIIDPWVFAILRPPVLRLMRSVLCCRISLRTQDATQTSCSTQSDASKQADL
TEST: compounds shifting PGE2 potency at EP2 – cell-based, human EP2, PGE2 EC50 shift, dose response (AID 1421)
MEASUREMENT_SETUP: EP2-expressing cells, PGE2 EC50 shift by compound; at 20 µM
The campaign covered roughly 1,300 compounds. About 140 (11%) were called active. Not all results are given here. Results with a measured potency or affinity are listed apart.

CC(C)c1ccc(/C=N/Nc2cc(N3CCOCC3)nc(N3CCOCC3)n2)cc1
0.21 nM (inactive)
CCC(C)(C)n1nnnc1C(c1ccncc1)N1CCC(Cc2ccccc2)CC1 (stereo unspecified)
1.27 nM (inactive)
COc1ccc(-n2c(COc3cccc4ccccc34)nnc2SCC#N)cc1
0.49 nM (inactive)
CCOc1ccc2cc(C#N)c(SCC(=O)NC(C)CC)nc2c1 (stereo unspecified)
0.8 nM (inactive)

Inquiry: Tell me the measured PGE2 EC50 with compound of CC(=O)c1cc(C#N)c(SCc2ccccc2)nc1C , please.
Reply text: 0.51 nM (inactive)

Inquiry: Tell me the measured PGE2 EC50 with compound of CCn1c2ccccc2c2cc(/C=N/n3c(C)nnc3C)ccc21 , please.
Reply text: 0.04 nM (inactive)

Inquiry: Tell me the measured PGE2 EC50 with compound of Cc1ccc(-c2nc(P(=O)(c3ccccc3)c3ccccc3)c(N3CCOCC3)o2)cc1 , please.
Reply text: 0.39 nM (inactive)

Inquiry: Tell me the measured PGE2 EC50 with compound of Cc1ccc(-c2cccc(C(=O)NCc3ccccc3)n2)c2ccccc12 , please.
Reply text: 0.42 nM (inactive)

Inquiry: Tell me the measured PGE2 EC50 with compound of Cc1ccccc1OCc1nc2ccccc2c(=O)n1/N=C/c1ccco1 , please.
Reply text: 0.61 nM (inactive)

Inquiry: Tell me the measured PGE2 EC50 with compound of CCc1c(-c2n[nH]c(=S)n2Cc2ccccc2)csc1C , please.
Reply text: 0.32 nM (inactive)

Inquiry: Tell me the measured PGE2 EC50 with compound of Cc1ccc(-c2cc3ccccc3nc2N2CCOCC2)cc1 , please.
Reply text: 0.38 nM (inactive)

###

List of PGE2 EC50 with compound values.
TESTED_SYSTEM: Prostaglandin E2 receptor EP2 subtype (Homo sapiens)
TEST: compounds shifting PGE2 potency at EP2 – cell-based, human EP2, PGE2 EC50 shift, dose response (AID 1421)
MEASUREMENT_SETUP: EP2-expressing cells, PGE2 EC50 shift by compound; at 20 µM
The campaign covered roughly 1,300 compounds. About 140 (11%) were called active. The list is a sample of the results. Entries with a potency or affinity are not part of this list.

CC(C)Sc1nc2sc3c(c2c2nnc(SCC(=O)NCc4ccco4)n12)CCCC3
830 pM (inactive)

Inquiry: Tell me the measured PGE2 EC50 with compound of CCc1nc(N2CCC(C)CC2)c2oc3ccccc3c2n1 , please.
Reply text: 320 pM (inactive)

Inquiry: Tell me the measured PGE2 EC50 with compound of Cc1nn2c(N3CCN(C(=O)c4ccco4)CC3)cc(C(C)(C)C)nc2c1-c1ccccc1 , please.
Reply text: 1080 pM (inactive)

Inquiry: Tell me the measured PGE2 EC50 with compound of CCCOP(=O)(OCCC)c1nc(-c2ccccc2)oc1NCc1ccccc1 , please.
Reply text: 150 pM (inactive)

Inquiry: Tell me the measured PGE2 EC50 with compound of O=C(CN1CCN(Cc2ccccc2)CC1)Nc1ccccc1-c1ccccc1 , please.
Reply text: 830 pM (inactive)

Inquiry: Tell me the measured PGE2 EC50 with compound of COC(=O)c1cc(Br)c(=O)n(-c2nccs2)c1 , please.
Reply text: 17000 pM (inactive)
